- experiment notes: Suramin quantitation in plasma and brain tissues by LC-MS/MS
- Format: in vivo, mouse
- measurement conditions: male, mouse, plasma, ip; 2 days after 20 mg kg^−1 i.p.
measured endpoint: concentration at 2 days (µM)

[[record]]
test_smiles = "Cc1ccc(C(=O)Nc2ccc(S(=O)(=O)O)c3cc(S(=O)(=O)O)cc(S(=O)(=O)O)c23)cc1NC(=O)c1cccc(NC(=O)Nc2cccc(C(=O)Nc3cc(C(=O)Nc4ccc(S(=O)(=O)O)c5cc(S(=O)(=O)O)cc(S(=O)(=O)O)c45)ccc3C)c2)c1"
units_label = "µM"
quantitative_readout = 7.64


Measured values drawn from patent US20160209428A1 for this set.
